Source: patent US20040038369A1

# studyTarget: recombinant AST (Homo sapiens, UniProt O60235)
# Construct: 232 amino acids from Ile at the 187th position to Ile at the 418th position
# Sequence (O60235 187-418): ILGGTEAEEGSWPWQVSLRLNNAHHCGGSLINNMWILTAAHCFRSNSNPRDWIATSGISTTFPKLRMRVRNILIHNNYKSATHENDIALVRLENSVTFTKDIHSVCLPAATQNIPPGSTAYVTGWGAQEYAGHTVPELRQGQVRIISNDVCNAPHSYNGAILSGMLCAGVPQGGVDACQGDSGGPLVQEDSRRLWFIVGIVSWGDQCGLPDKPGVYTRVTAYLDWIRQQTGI
# Sequence (O60235 162-186 partner limits assumed): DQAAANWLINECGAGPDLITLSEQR
# protocolSummary: AST-inhibiting activity of compound
# experimentalConditions: substrate Boc-Phe-Ser-Arg-MCA, 24° C., 6 minutes
pIC50: −log10 of the molar value. Counter-ions that a name gives are not always drawn.

{"compound": "N=C(N)c1ccc2cc(OC(=O)c3ccc(N=C(N)N)cc3)ccc2c1 [Nafamostat mesylate, nafamostat mesylate]", "pIC50": 6.64}
